Catalogue of pEC50 values
Biological target: T1, human TIGIT over-expressed on cells (human, UniProt Q495A1 22-244)
T1 construct: also called CHO-K1/human TIGIT cells; CHO cells expressing human TIGIT
T1 sequence: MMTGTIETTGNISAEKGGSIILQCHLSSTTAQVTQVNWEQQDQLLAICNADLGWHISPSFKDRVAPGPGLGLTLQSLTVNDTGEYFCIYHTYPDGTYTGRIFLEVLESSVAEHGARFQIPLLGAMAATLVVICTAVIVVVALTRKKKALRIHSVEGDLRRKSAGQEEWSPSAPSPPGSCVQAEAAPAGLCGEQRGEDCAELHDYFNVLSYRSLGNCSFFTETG
Test: FACS, CHO-K1 cells over-expressing human TIGIT
pEC50: −log10 of the molar value.
Observed property: pEC50

1. 70A11A8E6 (antibody, V domains shown, Mouse monoclonal antibody; also called mouse anti-human TIGIT monoclonal antibody 70A11A8E6) VH: DVQLQESGPGLVKPSQSLSLTCTVTGYSITSDYAWNWIRQFPGNKLEWMGYIIYSGSTSYNPSLKSRISITRDTSKNQFFLQLNSVTTEDTATYYCARGWFRRPDYWGQGTTLTVSS VL: DIVMTQSHEFMSTSLGDRVSITCKASQDVSTAVAWHQQKPGQSPKQLIYSASYRYTGVPDRFTGSGSGTDFTFTISNMQAEDLAVYYCQQHYSVPLTFGAGTKLELK	9.02
2. 128E3G7F5 (antibody, V domains shown, Mouse monoclonal antibody; also called mouse anti-human TIGIT monoclonal antibody 128E3G7F5) VH: EVLLQQSGPELVKTGASVKISCKASGYSFTAYYMHWVKQSHGKSLEWIGYISCYNGATTYNQKFKGKATFTVDTSSTTAYMQFNSLTSEDSAVYYCARRVYYGYDEALVYWGQGTSVTVSS VL: DIVMTQSPSSLSVSAGEKVTMTCKSSQSLLNSGNQKNYLAWYQQKPGQPPKLLIYGASTRGSGVPDRFTGSGSGTDFTLTISSVQAEDLAVYYCQNDHSYPYTFGGGTKLEIK	9.52
